testedTarget: T1, murine IL-11 (mouse) (UniProt P47873)
T1 sequence (looked up): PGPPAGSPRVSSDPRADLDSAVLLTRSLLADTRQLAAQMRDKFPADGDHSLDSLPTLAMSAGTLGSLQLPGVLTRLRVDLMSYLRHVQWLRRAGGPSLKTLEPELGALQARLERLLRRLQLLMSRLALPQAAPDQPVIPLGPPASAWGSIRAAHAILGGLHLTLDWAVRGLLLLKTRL
assayExplanation: ELISA binding signal
assayReadout: mIL11 - average signal
Returns: the value as a bare number; no unit string appended.

query: So what's the measured mIL11 - average signal for this one? YU100-E07 (scFv) scFv: QVQLQESGGGVVQPGRSLRLSCAASGFTFSSYGMHWVRQAPGKGLEWVAVISYDGSNRYYADSVKGRFAISRDNSKNTLYLQMNSLRAEDTAVYYCAKIGATDPLDYWGQGTLVTVSSGSASAPKLEEGEFSEARVQSALTQPRSVSGSPGQSVTISCTGTSSDVGGYDYVSWYQQHPGKAPELMIYDVTKRPSGVADRFSGSKSGNTASLTISGLQAEDEADYYCCSYAGRYTWVFGGGTKLTVL
result: 0.247

query: So what's the measured mIL11 - average signal for this one? YU100-A11 (scFv) scFv: EVQLQQSGGGVVQPGRSLRLSCAASGFTFSSYGMHWVRQAPGKGLEWVAVISYDGSNKYYADSVKGRFTISRDNSKNTLYLQMNSLRAEDTAVYYCAKIGATDPLDYWGQGTLVTVSSGSASAPKLEEGEFSEARVQSALTQPRSVSGSPGQSVTISCTGTSSDVGGYNYVSWYQQHPGKAPKLMIYDVSKRPSGVPDRFSGSKSGNTASLTISGLQAEDEADYYCCSYAGSYTWVFGGGTKLTVL
result: 0.372

query: So what's the measured mIL11 - average signal for this one? YU100-H02 (scFv) scFv: QVQLQQSGGGVVQPGRSLRLSCAASGFTFSSYGMHWVRQAPGKGLEWVAVISYDGSNKYYADSVKGRFTISRDNSKNTLYLQMNSLRAEDTAVYYCARIMGYDYGDYDVVDYWGQGTLVTVSSGSASAPKLEEGEFSEARVQSALTQPRSVSRSPGQSVTISCTGTSSDVGTYNYVSWYQQHPGKAPKLMIYDVSKRPSGVPDRFSGSKSGNTASLTISGLQAEDEADYYCCSYAGFYTWVFGGGTKLTVL
result: 0.188

query: So what's the measured mIL11 - average signal for this one? YU112-F05 (scFv) scFv: EVQLVQSGGGVVQPGRSLRLSCAASGFTFGSYGMHWVRQAPGKGLEWVAVISYDGSNKYYADSVKGRFTISRDNSKNTLYLQMNSLRAEDTAVYYCAKIGATDPLDYWGQGTLVTVSSGSASAPKLEEGEFSEARVQSALTQPRSVSGSPGQSVTISCTGTSSDVGGYNYVSWYQQHPGKAPKLIIYDVNNRPSGVSNRFSASKSGNTASLTISGLQAEDEADYYCNSYTSGSTWVFGGGTKLTVL
result: 0.601
